# Tested on: BDF1 mice, B16 melanoma ip, median survival T/C
# Assay Explanation: NCI In Vivo Anticancer Drug Screen. Data for tumor model B16 Melanoma (intraperitoneal) in B6D2F1 (BDF1) mice
# Condition Set: endpoint: median survival time; dose: 100.0 mg/kg/injection; schedule: Q01DX009 (ip); vehicle: saline with Tween-80; higher = longer survival
Toxic doses and inconclusive results are not listed. Square brackets hold non-standard residues; d marks the D form. Peptide text beside a SMILES is read from it. * marks the point of attachment. ξ: configuration not given here. ξF = NC(Cc1ccccc1)C(=O)O; Bz = O=C(c1ccccc1)*
In this section, each of the molecules is paired with its reported T/C.

[
  {
    "Molecule": "CCCN1COC(OCC)C(C)(C)C1 (centres undefined)",
    "System Under Test": "BDF1 mice, B16 melanoma ip, median survival T/C",
    "T/C": "98 % of control"
  },
  {
    "Molecule": "O=CNNC=O",
    "System Under Test": "BDF1 mice, B16 melanoma ip, median survival T/C",
    "T/C": "86 % of control"
  },
  {
    "Molecule": "Clc1ncnc2nc[nH]c12",
    "System Under Test": "BDF1 mice, B16 melanoma ip, median survival T/C",
    "T/C": "97 % of control"
  },
  {
    "Molecule": "CC(=O)OCC(COC(C)=O)(COC(C)=O)COC(C)=O",
    "System Under Test": "BDF1 mice, B16 melanoma ip, median survival T/C",
    "T/C": "105 % of control"
  },
  {
    "Molecule": "O=C(CNC(=O)c1ccccc1)NCC(=O)NC(Cc1ccccc1)C(=O)O (stereo not drawn) (Bz-Gly-Gly-[ξF]-OH)",
    "System Under Test": "BDF1 mice, B16 melanoma ip, median survival T/C",
    "T/C": "87 % of control"
  },
  {
    "Molecule": "OC(c1ccccc1)C1(c2ccccc2)OCCO1 (centres undefined)",
    "System Under Test": "BDF1 mice, B16 melanoma ip, median survival T/C",
    "T/C": "100 % of control"
  },
  {
    "Molecule": "O=C(O)c1ccccc1C(=O)Nc1ccc(Cl)cc1",
    "System Under Test": "BDF1 mice, B16 melanoma ip, median survival T/C",
    "T/C": "105 % of control"
  },
  {
    "Molecule": "O=C(Nc1nncs1)c1ccncc1",
    "System Under Test": "BDF1 mice, B16 melanoma ip, median survival T/C",
    "T/C": "113 % of control"
  },
  {
    "Molecule": "CCN(CC)C(=S)SC(=S)N(CC)CC",
    "System Under Test": "BDF1 mice, B16 melanoma ip, median survival T/C",
    "T/C": "96 % of control"
  },
  {
    "Molecule": "CC(=O)Oc1[nH]c(=O)c2cccc3c2c1CCC3",
    "System Under Test": "BDF1 mice, B16 melanoma ip, median survival T/C",
    "T/C": "115 % of control"
  },
  {
    "Molecule": "Nc1nc(N)nc(N)n1",
    "System Under Test": "BDF1 mice, B16 melanoma ip, median survival T/C",
    "T/C": "102 % of control"
  },
  {
    "Molecule": "[O-][n+]1c(CCl)nc2cccc3c2c1-c1ccccc1-3",
    "System Under Test": "BDF1 mice, B16 melanoma ip, median survival T/C",
    "T/C": "90 % of control"
  },
  {
    "Molecule": "O=C(/C=C\\c1ccccc1)/C=C/c1ccccc1",
    "System Under Test": "BDF1 mice, B16 melanoma ip, median survival T/C",
    "T/C": "104 % of control"
  },
  {
    "Molecule": "O=C(O)c1ccc(C(Cl)(Cl)Cl)cc1",
    "System Under Test": "BDF1 mice, B16 melanoma ip, median survival T/C",
    "T/C": "98 % of control"
  },
  {
    "Molecule": "CN(C)CCCN1c2ccc(O)cc2Sc2ccc(Cl)cc21",
    "System Under Test": "BDF1 mice, B16 melanoma ip, median survival T/C",
    "T/C": "124 % of control"
  },
  {
    "Molecule": "CC(=O)Nc1ccc([I+]c2ccc([N+](=O)[O-])cc2)cc1",
    "System Under Test": "BDF1 mice, B16 melanoma ip, median survival T/C",
    "T/C": "98 % of control"
  },
  {
    "Molecule": "c1cncc(C2OCCO2)c1",
    "System Under Test": "BDF1 mice, B16 melanoma ip, median survival T/C",
    "T/C": "98 % of control"
  },
  {
    "Molecule": "CCOC(=O)C(C(=O)OCC)c1cc(NC(=O)c2ccccc2)ccc1NC(=O)c1ccccc1",
    "System Under Test": "BDF1 mice, B16 melanoma ip, median survival T/C",
    "T/C": "95 % of control"
  },
  {
    "Molecule": "NC(Cc1ccc(O)cc1)C(=O)OCc1ccccc1 (centres undefined)",
    "System Under Test": "BDF1 mice, B16 melanoma ip, median survival T/C",
    "T/C": "102 % of control"
  },
  {
    "Molecule": "CC(=O)OC(OC(C)=O)c1ccc([N+](=O)[O-])cc1",
    "System Under Test": "BDF1 mice, B16 melanoma ip, median survival T/C",
    "T/C": "93 % of control"
  },
  {
    "Molecule": "O=[N+]([O-])c1ccc(NCCO)c([N+](=O)[O-])c1",
    "System Under Test": "BDF1 mice, B16 melanoma ip, median survival T/C",
    "T/C": "100 % of control"
  },
  {
    "Molecule": "CCCC(C)c1ccccc1O (centres undefined)",
    "System Under Test": "BDF1 mice, B16 melanoma ip, median survival T/C",
    "T/C": "92 % of control"
  },
  {
    "Molecule": "Nc1ccc(Cl)cc1N",
    "System Under Test": "BDF1 mice, B16 melanoma ip, median survival T/C",
    "T/C": "99 % of control"
  },
  {
    "Molecule": "C[N+](C)(C)CCOC(=O)c1ccccc1",
    "System Under Test": "BDF1 mice, B16 melanoma ip, median survival T/C",
    "T/C": "91 % of control"
  },
  {
    "Molecule": "Cc1cc(Cl)ccc1NS(=O)(=O)c1cccc([N+](=O)[O-])c1",
    "System Under Test": "BDF1 mice, B16 melanoma ip, median survival T/C",
    "T/C": "116 % of control"
  },
  {
    "Molecule": "C=CCNc1ccc(OC)cc1",
    "System Under Test": "BDF1 mice, B16 melanoma ip, median survival T/C",
    "T/C": "107 % of control"
  },
  {
    "Molecule": "COC(CCC#N)c1ccc(Cl)cc1 (centres undefined)",
    "System Under Test": "BDF1 mice, B16 melanoma ip, median survival T/C",
    "T/C": "101 % of control"
  },
  {
    "Molecule": "COC(=O)c1cc(C)ccc1O",
    "System Under Test": "BDF1 mice, B16 melanoma ip, median survival T/C",
    "T/C": "97 % of control"
  },
  {
    "Molecule": "Oc1ccc(/C=N\\N=C\\c2ccc(O)cc2)cc1",
    "System Under Test": "BDF1 mice, B16 melanoma ip, median survival T/C",
    "T/C": "95 % of control"
  },
  {
    "Molecule": "O=Cc1cc2c(cc1Cl)OCO2",
    "System Under Test": "BDF1 mice, B16 melanoma ip, median survival T/C",
    "T/C": "107 % of control"
  },
  {
    "Molecule": "CCOC(=O)N1C(=O)c2ccccc2C1=O",
    "System Under Test": "BDF1 mice, B16 melanoma ip, median survival T/C",
    "T/C": "86 % of control"
  },
  {
    "Molecule": "COc1ccccc1NC(=O)Nc1cccc(C(C)=O)c1",
    "System Under Test": "BDF1 mice, B16 melanoma ip, median survival T/C",
    "T/C": "94 % of control"
  },
  {
    "Molecule": "CC1=NN(c2cccc(Cl)c2)C(=O)C1",
    "System Under Test": "BDF1 mice, B16 melanoma ip, median survival T/C",
    "T/C": "109 % of control"
  },
  {
    "Molecule": "Cc1ccc(N)c(Br)c1",
    "System Under Test": "BDF1 mice, B16 melanoma ip, median survival T/C",
    "T/C": "91 % of control"
  },
  {
    "Molecule": "CN1CCc2cc3c(cc2C(=O)Cc2ccc4c(c2C1)OCO4)OCO3",
    "System Under Test": "BDF1 mice, B16 melanoma ip, median survival T/C",
    "T/C": "105 % of control"
  },
  {
    "Molecule": "Oc1cccnc1CN1CCOCC1",
    "System Under Test": "BDF1 mice, B16 melanoma ip, median survival T/C",
    "T/C": "106 % of control"
  },
  {
    "Molecule": "CS(=O)(=O)c1cc(=O)[nH]c(=O)[nH]1",
    "System Under Test": "BDF1 mice, B16 melanoma ip, median survival T/C",
    "T/C": "92 % of control"
  },
  {
    "Molecule": "CCN(CC)CCC(=O)c1ccccc1",
    "System Under Test": "BDF1 mice, B16 melanoma ip, median survival T/C",
    "T/C": "107 % of control"
  },
  {
    "Molecule": "O=C(CCl)NC(Cc1ccc(O)cc1)C(=O)O (centres undefined)",
    "System Under Test": "BDF1 mice, B16 melanoma ip, median survival T/C",
    "T/C": "95 % of control"
  },
  {
    "Molecule": "Cc1c(C)c2c(c(C)c1O)CCC(C)(CCCC(C)CCCC(C)CCCC(C)C)O2 (centres undefined)",
    "System Under Test": "BDF1 mice, B16 melanoma ip, median survival T/C",
    "T/C": "95 % of control"
  },
  {
    "Molecule": "Nc1nc(N)nc(-c2ccc([N+](=O)[O-])o2)n1",
    "System Under Test": "BDF1 mice, B16 melanoma ip, median survival T/C",
    "T/C": "103 % of control"
  },
  {
    "Molecule": "CC1(C)OC2OC(COC(=O)c3ccccc3)C(=O)C2O1 (centres undefined)",
    "System Under Test": "BDF1 mice, B16 melanoma ip, median survival T/C",
    "T/C": "93 % of control"
  },
  {
    "Molecule": "C/C=C/CNc1ccccc1",
    "System Under Test": "BDF1 mice, B16 melanoma ip, median survival T/C",
    "T/C": "94 % of control"
  },
  {
    "Molecule": "O=C(Nc1nncs1)c1cccs1",
    "System Under Test": "BDF1 mice, B16 melanoma ip, median survival T/C",
    "T/C": "109 % of control"
  }
]
